- TARGET OR SYSTEM: hSSTR5 (Homo sapiens, UniProt P35346)
- Construct: expressed in transfected cells; host or cells: CHO-K1 (ATCC), pcDNA3.1, G418-selected clonal line; membranes
- Sequence (P35346 whole entry): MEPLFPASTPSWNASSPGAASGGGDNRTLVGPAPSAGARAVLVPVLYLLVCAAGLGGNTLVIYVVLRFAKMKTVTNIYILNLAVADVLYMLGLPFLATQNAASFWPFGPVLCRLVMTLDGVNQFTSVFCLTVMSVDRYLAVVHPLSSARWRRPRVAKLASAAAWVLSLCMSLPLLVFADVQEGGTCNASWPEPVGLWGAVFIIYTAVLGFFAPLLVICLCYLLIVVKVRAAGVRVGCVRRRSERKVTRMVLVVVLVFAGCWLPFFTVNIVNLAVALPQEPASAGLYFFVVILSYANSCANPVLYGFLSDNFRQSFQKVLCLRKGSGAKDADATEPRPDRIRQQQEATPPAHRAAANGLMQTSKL
- ASSAY PROTOCOL: Somatostatin receptor radioligand binding assay (hSSTR5)
- ASSAY CONTEXT: CHO-K1 cell membranes; 0.05 nM [125I-Tyr]-[DPhe-cyclo(Cys-Tyr-DTrp-Lys-Val-Cys)-Thr-NH2]; 60 minutes at 25°C; read-out: hSSTR5 Ki (nM) ± SEM
ATTRIBUTE MEASURED: Ki (nM)
Answer format: numeric, nM implied, no suffix.

COMPOUND STRUCTURE: C[C@@H](O)[C@@H]1NC(=O)[C@H](CCCCN)NC(=O)[C@@H](Cc2c[nH]c3ccccc23)NC(=O)[C@H](Cc2ccncc2)NC(=O)[C@H](Cc2ccccc2)NC(=O)[C@H](CCCNC(=N)N)NC(=O)[C@H](NC[C@H](CCCCNC(=O)CSC[C@@H]2C[C@@H]3c4cccc5[nH]cc(c45)C[C@H]3N(C)C2)NC(=O)CSC[C@@H]2C[C@@H]3c4cccc5[nH]cc(c45)C[C@H]3N(C)C2)CCCCNC(=O)[C@H](Cc2ccccc2)NC1=O
ASSAY VALUE: 1.54

// next item, Ki requested
Please tell me the measured Ki for `C[C@@H](O)[C@@H]1NC(=O)[C@H](CCCCN)NC(=O)[C@@H](Cc2c[nH]c3ccccc23)NC(=O)[C@H](Cc2ccccc2)NC(=O)[C@H](Cc2ccccc2)NC(=O)[C@H](CCCNC(=N)N)NC(=O)[C@H](NCCS(=O)(=O)C[C@@H]2C[C@@H]3c4cccc5[nH]cc(c45)C[C@H]3N(C)C2)CCCCNC(=O)[C@H](Cc2ccc(F)cc2)NC1=O` ; system: hSSTR5 (Homo sapiens, UniProt P35346).
0.16

---

- TARGET OR SYSTEM: hDRD2 (Homo sapiens);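 note: agonist activity at human DRD2 in DRD2-expressing cells, read as intracellular calcium mobilization with a FLIPR Calcium 4 fluorescent dye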
- Sequence (P14416 whole entry): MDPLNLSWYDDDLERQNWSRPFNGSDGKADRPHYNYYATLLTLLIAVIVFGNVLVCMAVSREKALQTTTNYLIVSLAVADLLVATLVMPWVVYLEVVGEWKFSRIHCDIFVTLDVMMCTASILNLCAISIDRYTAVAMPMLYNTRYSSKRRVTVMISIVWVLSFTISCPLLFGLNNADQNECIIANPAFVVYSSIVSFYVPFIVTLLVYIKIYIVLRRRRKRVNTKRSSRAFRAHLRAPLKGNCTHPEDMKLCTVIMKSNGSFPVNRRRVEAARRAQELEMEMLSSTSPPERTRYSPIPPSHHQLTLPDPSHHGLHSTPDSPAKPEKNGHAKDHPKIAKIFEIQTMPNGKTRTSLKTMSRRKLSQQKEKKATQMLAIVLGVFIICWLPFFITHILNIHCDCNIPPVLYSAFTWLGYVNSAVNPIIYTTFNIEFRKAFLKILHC
- ASSAY PROTOCOL: cell-based
- Parameters: host or cells: 'Cells expressing hDRD2'
- ASSAY CONTEXT: read-out: hDRD2 %Emax ± SEM
Bridge positions count the residues as written; N and C are the ends. Square brackets hold non-standard residues; d marks the D form. Peptide text beside a SMILES is read from it. * marks the point of attachment. X2 = CN1C[C@H](CSCC(=O)*)C[C@@H]2c3cccc4[nH]cc(c34)C[C@H]21; 4Pal = N[C@@H](Cc1ccncc1)C(=O)O
ATTRIBUTE MEASURED: Emax (%)
Answer format: numeric, % implied, no suffix.

Answered examples (3):
MOLECULE: C[C@@H](O)[C@@H]1NC(=O)[C@H](CCCCN)NC(=O)[C@@H](Cc2c[nH]c3ccccc23)NC(=O)[C@H](Cc2ccccc2)NC(=O)[C@H](Cc2ccccc2)NC(=O)[C@H](CCCNC(=N)N)NC(=O)[C@H](NCCCCC[C@@H]2C[C@@H]3c4cccc5[nH]cc(c45)C[C@H]3N(C)C2)CCCCNC(=O)[C@H](Cc2ccc(F)cc2)NC1=O [Compound 3]
ATTRIBUTE MEASURED: Emax
ASSAY VALUE: 84.1
--
MOLECULE: C[C@@H](O)[C@@H]1NC(=O)[C@H](CCCCN)NC(=O)[C@@H](Cc2c[nH]c3ccccc23)NC(=O)[C@H](Cc2ccncc2)NC(=O)[C@H](Cc2ccccc2)NC(=O)[C@H](CCCNC(=N)N)NC(=O)[C@H](NC[C@H](CCCCNC(=O)CSC[C@@H]2C[C@@H]3c4cccc5[nH]cc(c45)C[C@H]3N(C)C2)NC(=O)CSC[C@@H]2C[C@@H]3c4cccc5[nH]cc(c45)C[C@H]3N(C)C2)CCCCNC(=O)[C@H](Cc2ccc(O)cc2)NC1=O [Compound 8]
ATTRIBUTE MEASURED: Emax
ASSAY VALUE: 94.7
--
MOLECULE: C[C@@H](O)[C@@H]1NC(=O)[C@H](CCCCN)NC(=O)[C@@H](Cc2c[nH]c3ccccc23)NC(=O)[C@H](Cc2ccccc2)NC(=O)[C@H](Cc2ccccc2)NC(=O)[C@H](CCCNC(=N)N)NC(=O)[C@H](NCCCS(=O)(=O)C[C@@H]2C[C@@H]3c4cccc5[nH]cc(c45)C[C@H]3N(C)C2)CCCCNC(=O)[C@H](Cc2ccc(F)cc2)NC1=O [Compound 48]
ATTRIBUTE MEASURED: Emax
ASSAY VALUE: 76.5

Consider the molecule C[C@@H](O)[C@@H]1NC(=O)[C@H](CCCCN)NC(=O)[C@@H](Cc2c[nH]c3ccccc23)NC(=O)[C@H](Cc2ccncc2)NC(=O)[C@H](Cc2ccccc2)NC(=O)[C@H](CCCNC(=N)N)NC(=O)[C@H](NC(=O)CSC[C@@H]2C[C@@H]3c4cccc5[nH]cc(c45)C[C@H]3N(C)C2)CCCCNC(=O)[C@H](Cc2ccc(O)cc2)NC1=O [Compound 25] (X2-[dK]RF[4Pal][dW]KTY; lactam 1-C) . State its measured Emax.
82.5

Consider the molecule CC(=O)N(CCC(=O)NC(CN[C@@H]1CCCCNC(=O)[C@H](Cc2ccc(F)cc2)NC(=O)[C@H]([C@@H](C)O)NC(=O)[C@H](CCCCN)NC(=O)[C@@H](Cc2c[nH]c3ccccc23)NC(=O)[C@H](Cc2ccccc2)NC(=O)[C@H](Cc2ccccc2)NC(=O)[C@H](CCCNC(=N)N)NC1=O)Cc1ccc(O)cc1)C[C@@H]1C[C@@H]2c3cccc4[nH]cc(c34)C[C@H]2N(C)C1 (single isomer, unassigned) [Compound 27] . State its measured Emax.
86.3

Consider the molecule C[C@@H](O)[C@@H]1NC(=O)[C@H](CCCCN)NC(=O)[C@@H](Cc2c[nH]c3ccccc23)NC(=O)[C@H](Cc2ccccc2)NC(=O)[C@H](Cc2ccccc2)NC(=O)[C@H](CCCNC(=N)N)NC(=O)[C@H](NCCSC[C@@H]2C[C@@H]3c4cccc5[nH]cc(c45)C[C@H]3N(C)C2)CCCCNC(=O)[C@H](Cc2ccccc2F)NC1=O [Compound 6D] . State its measured Emax.
101

---

- TARGET OR SYSTEM: hSSTR2 (Homo sapiens, UniProt P30874)
- Construct: host or cells: 'Cells expressing hSSTR2'
- Sequence (P30874 whole entry): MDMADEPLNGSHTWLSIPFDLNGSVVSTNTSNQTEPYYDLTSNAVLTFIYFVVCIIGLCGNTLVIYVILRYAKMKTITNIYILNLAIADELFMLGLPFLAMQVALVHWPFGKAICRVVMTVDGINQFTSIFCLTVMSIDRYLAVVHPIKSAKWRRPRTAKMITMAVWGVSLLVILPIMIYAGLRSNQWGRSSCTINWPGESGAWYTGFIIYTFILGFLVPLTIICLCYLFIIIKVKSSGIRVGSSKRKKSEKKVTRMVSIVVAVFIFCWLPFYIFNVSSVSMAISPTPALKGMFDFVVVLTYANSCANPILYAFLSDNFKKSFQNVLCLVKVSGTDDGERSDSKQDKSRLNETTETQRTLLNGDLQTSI
- ASSAY PROTOCOL: Somatostatin receptor radioligand binding assay (hSSTR2);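 note: radioligand displacement on membranes of CHO-K1 cells stably transfected with human SSTR2, specific binding taken as total minus binding left with 1000 nM SRIF-14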
Numbered stars: 1 amine (or outer) side, 2 acyl side, 3 side chain; on linkers, the order of the positions; unused ones are H or OH. Bridge positions count the residues as written; N and C are the ends. Square brackets hold non-standard residues; d marks the D form. Peptide text beside a SMILES is read from it. X1 = CN1C[C@H](CSCCN(CCSC[C@@H]2C[C@@H]3c4cccc5[nH]cc(c45)C[C@H]3N(C)C2)[C@H](CCCCN[*:2])C(=O)[*:1])C[C@@H]2c3cccc4[nH]cc(c34)C[C@H]21; 4Pal = N[C@@H](Cc1ccncc1)C(=O)O
Mark each entry MET if its Ki sits below 0.2 nM, and NOT MET for all others.

Here are 3 molecules together with their reported answers.
MOLECULE: C[C@@H](O)[C@@H]1NC(=O)[C@H](CCCCN)NC(=O)[C@@H](Cc2c[nH]c3ccccc23)NC(=O)[C@H](Cc2ccccc2)NC(=O)[C@H](Cc2ccccc2)NC(=O)[C@H](CCCNC(=N)N)NC(=O)[C@H](NC[C@H](Cc2ccc(O)cc2)NC(=O)CSC[C@@H]2C[C@@H]3c4cccc5[nH]cc(c45)C[C@H]3N(C)C2)CCCCNC(=O)[C@H](Cc2ccc(O)cc2)NC1=O
CLASS LABEL: NOT MET
--
MOLECULE: CC(=O)N(CCC(=O)NC(CN[C@@H]1CCCCNC(=O)[C@H](Cc2ccc(F)cc2)NC(=O)[C@H]([C@@H](C)O)NC(=O)[C@H](CCCCN)NC(=O)[C@@H](Cc2c[nH]c3ccccc23)NC(=O)[C@H](Cc2ccccc2)NC(=O)[C@H](Cc2ccccc2)NC(=O)[C@H](CCCNC(=N)N)NC1=O)Cc1ccc(O)cc1)C[C@@H]1C[C@@H]2c3cccc4[nH]cc(c34)C[C@H]2N(C)C1 (single isomer, unassigned)
CLASS LABEL: NOT MET
--
MOLECULE: C[C@@H](O)[C@@H]1NC(=O)[C@H](CCCCN)NC(=O)[C@@H](Cc2c[nH]c3ccccc23)NC(=O)[C@H](Cc2ccncc2)NC(=O)[C@H](Cc2ccccc2)NC(=O)[C@H](CCCNC(=N)N)NC(=O)[C@H](N(CCSC[C@@H]2C[C@@H]3c4cccc5[nH]cc(c45)C[C@H]3N(C)C2)CCSC[C@@H]2C[C@@H]3c4cccc5[nH]cc(c45)C[C@H]3N(C)C2)CCCCNC(=O)[C@H](Cc2ccccc2)NC1=O [Compound 29] (RF[4Pal][dW]KTF; linker N-C via X1)
CLASS LABEL: MET

Identify whether the molecule `C[C@@H](O)[C@@H]1NC(=O)[C@H](CCCCN)NC(=O)[C@@H](Cc2c[nH]c3ccccc23)NC(=O)[C@H](Cc2ccccc2)NC(=O)[C@H](Cc2ccccc2)NC(=O)[C@H](CCCNC(=N)N)NC(=O)[C@H](NC[C@H](Cc2ccc(O)cc2)NC(=O)CS(=O)(=O)C[C@@H]2C[C@@H]3c4cccc5[nH]cc(c45)C[C@H]3N(C)C2)CCCCNC(=O)[C@H](Cc2ccc(F)cc2)NC1=O` records Ki below 0.2 nM.
MET

Identify whether the molecule `CC(=O)N(CCCN(C(C)=O)[C@@H]1CCCCNC(=O)[C@H](Cc2ccc(F)cc2)NC(=O)[C@H]([C@@H](C)O)NC(=O)[C@H](CCCCN)NC(=O)[C@@H](Cc2c[nH]c3ccccc23)NC(=O)[C@H](Cc2ccccc2)NC(=O)[C@H](Cc2ccccc2)NC(=O)[C@H](CCCNC(=N)N)NC1=O)C[C@@H]1C[C@@H]2c3cccc4[nH]cc(c34)C[C@H]2N(C)C1` records Ki below 0.2 nM.
NOT MET

Identify whether the molecule `C[C@@H](O)[C@@H]1NC(=O)[C@H](CCCCN)NC(=O)[C@@H](Cc2c[nH]c3ccccc23)NC(=O)[C@H](Cc2ccccc2)NC(=O)[C@H](Cc2ccccc2)NC(=O)[C@H](CCCNC(=N)N)NC(=O)[C@H](NCCSC[C@@H]2C[C@@H]3c4cccc5[nH]cc(c45)C[C@H]3N(C)C2)CCCCNC(=O)[C@H](Cc2ccc(F)c(F)c2)NC1=O` records Ki below 0.2 nM.
NOT MET
